Test system: RNAi-treated eri-1 (mg366) nematodes
EXPERIMENTAL DETAILS: RNAi screening of olfactory receptor genes: chemotaxis assay of RNAi-treated nematodes to odorants
Type: in vivo, Caenorhabditis elegans
PARTICULARS: srh-46 RNAi-treated nematodes; repellent or high concentration of attractant
Method: The RNAi assay was carried out by performing an RNAi method involving the feeding (feeding RNAi method) of eri-1 (mg366) (19), using an Ahringer library (37). Nine adult eri-1 mutants were placed on an NGM plate containing isopropyl 1-D-1-thiogalactopyranoside (0.19 g/L), ampicillin (60 mg/L), and Escherichia coli (E. coli), and were then cultured for 4 days. […] The z score and a control value in each single test from 2SD were calculated in all days (Table 3) or every day. […]
Provide the reported chemotaxis index of each item.
Answers are plain numbers.

Below, 3 molecules whose answers are already recorded.
MOLECULE | chemotaxis index
CC(C)CCO [High Iaa] | −0.91
CCCCCCCCO [octanol] | −0.87
CCCCCCCC(C)=O [nonanone] | −0.87

Batch of 2 molecules: report chemotaxis index for each.
1. O=Cc1ccccc1 [High Bz]
2. CC(=O)C(C)=O [High Da]

1: −0.82; 2: −0.82

* * *

Test system: RNAi-treated eri-1 (mg366) nematodes
EXPERIMENTAL DETAILS: RNAi screening of olfactory receptor genes: chemotaxis assay of RNAi-treated nematodes to odorants
Assay type: in vivo, Caenorhabditis elegans
PARTICULARS: srh-282 RNAi-treated nematodes; low concentration of attractant
Provide the reported chemotaxis index of each item.

Below, 3 molecules whose answers are already recorded.
MOLECULE | TEST VALUE
Cc1nc(C)c(C)s1 [trimethylthiazole] | 0.79
c1cnccn1 [pyrazine] | 0.55
CC(C)CCO [isoamyl alcohol] | 0.52

Batch of 3 molecules: report chemotaxis index for each.
1. O=Cc1ccccc1 [benzaldehyde]
2. CCC(=O)C(C)=O [pentanedione]
3. CCC(C)=O [butanone]

[0.24, 0.73, 0.80]

* * *

Test system: RNAi-treated eri-1 (mg366) nematodes
EXPERIMENTAL DETAILS: RNAi screening of olfactory receptor genes: chemotaxis assay of RNAi-treated nematodes to odorants
Assay type: in vivo, Caenorhabditis elegans
PARTICULARS: srh-70 RNAi-treated nematodes; repellent or high concentration of attractant
OBSERVED PROPERTY: chemotaxis index
Answers are plain numbers.

COMPOUND | ASSAYED SYSTEM | TEST VALUE
CCCCCCCCO | RNAi-treated eri-1 (mg366) nematodes | −0.80
CC(C)CCO | RNAi-treated eri-1 (mg366) nematodes | −0.40
CC(=O)C(C)=O | RNAi-treated eri-1 (mg366) nematodes | −0.87
CCCCCCCC(C)=O | RNAi-treated eri-1 (mg366) nematodes | −0.81

Now for another entry.
Recorded result, `O=Cc1ccccc1` , chemotaxis index: −0.94

* * *

Tested on: RNAi-treated eri-1 (mg366) nematodes
EXPERIMENTAL DETAILS: RNAi screening of olfactory receptor genes: chemotaxis assay of RNAi-treated nematodes to odorants
Type: in vivo, Caenorhabditis elegans
PARTICULARS: srh-44 RNAi-treated nematodes; repellent or high concentration of attractant
Field 'label' (enum: t / f). Set to t when chemotaxis index is strictly under -0.5; else f.

These solved cases illustrate the format of a correct answer.
COMPOUND | ASSAYED SYSTEM | ASSIGNED CLASS
O=Cc1ccccc1 | RNAi-treated eri-1 (mg366) nematodes | f
CCCCCCCCO | RNAi-treated eri-1 (mg366) nematodes | t
CC(=O)C(C)=O | RNAi-treated eri-1 (mg366) nematodes | f
CC(C)CCO | RNAi-treated eri-1 (mg366) nematodes | f

Next item in the queue.
Threshold test, chemotaxis index < -0.5: `CCCCCCCC(C)=O` t

* * *

Provide the reported chemotaxis index of each item.
System: RNAi-treated eri-1 (mg366) nematodes
EXPERIMENTAL DETAILS: RNAi screening of olfactory receptor genes: chemotaxis assay of RNAi-treated nematodes to odorants
Format: in vivo, Caenorhabditis elegans
PARTICULARS: srh-36 RNAi-treated nematodes; repellent or high concentration of attractant
One number for each entry.

Below, 3 compounds whose answers are already recorded.
COMPOUND | chemotaxis index
CCCCCCCC(C)=O | −0.57
CC(C)CCO | −0.59
O=Cc1ccccc1 | −0.95

Batch of 2 compounds: report chemotaxis index for each.
1. CC(=O)C(C)=O
2. CCCCCCCCO

1. −0.46
2. −0.72

* * *

Test system: RNAi-treated eri-1 (mg366) nematodes
EXPERIMENTAL DETAILS: RNAi screening of olfactory receptor genes: chemotaxis assay of RNAi-treated nematodes to odorants
Type: in vivo, Caenorhabditis elegans
PARTICULARS: srh-60 RNAi-treated nematodes; repellent or high concentration of attractant
Field 'label' (enum: Condition met / Condition not met). Set to Condition met when chemotaxis index is strictly under -0.6; else Condition not met.

These solved cases illustrate the format of a correct answer.
COMPOUND | ASSIGNED CLASS
CCCCCCCCO | Condition not met
CCCCCCCC(C)=O | Condition met
CC(=O)C(C)=O | Condition met
O=Cc1ccccc1 | Condition met

Next item in the queue.
Threshold test, chemotaxis index < -0.6: `CC(C)CCO` Condition met

* * *

Tested on: RNAi-treated eri-1 (mg366) nematodes
EXPERIMENTAL DETAILS: RNAi screening of olfactory receptor genes: chemotaxis assay of RNAi-treated nematodes to odorants
Format: in vivo, Caenorhabditis elegans
PARTICULARS: srh-52 RNAi-treated nematodes; repellent or high concentration of attractant
OBSERVED PROPERTY: chemotaxis index
Answers are plain numbers.

Below, 4 compounds whose answers are already recorded.
COMPOUND | TEST VALUE
CC(C)CCO | −0.96
CCCCCCCC(C)=O | −0.85
CC(=O)C(C)=O | −0.78
CCCCCCCCO | −0.79

Recorded result, `O=Cc1ccccc1` , chemotaxis index: −1.00

* * *

System: RNAi-treated eri-1 (mg366) nematodes
EXPERIMENTAL DETAILS: RNAi screening of olfactory receptor genes: chemotaxis assay of RNAi-treated nematodes to odorants
Assay type: in vivo, Caenorhabditis elegans
PARTICULARS: srh-23 RNAi-treated nematodes; repellent or high concentration of attractant
OBSERVED PROPERTY: chemotaxis index

Below, 4 compounds whose answers are already recorded.
COMPOUND | chemotaxis index
O=Cc1ccccc1 | −0.88
CCCCCCCC(C)=O | −0.77
CC(C)CCO | −0.88
CC(=O)C(C)=O | −0.87

Now for another entry.
Recorded result, `CCCCCCCCO` , chemotaxis index: −0.90

* * *

Tested on: RNAi-treated eri-1 (mg366) nematodes
EXPERIMENTAL DETAILS: RNAi screening of olfactory receptor genes: chemotaxis assay of RNAi-treated nematodes to odorants
Format: in vivo, Caenorhabditis elegans
PARTICULARS: srh-27 RNAi-treated nematodes; repellent or high concentration of attractant
OBSERVED PROPERTY: chemotaxis index
Numbers only.

Batch of 2 compounds: report chemotaxis index for each.
1. CCCCCCCCO
2. O=Cc1ccccc1

1. −0.68
2. 0.96

Batch of 3 compounds: report chemotaxis index for each.
1. CC(=O)C(C)=O
2. CC(C)CCO
3. CCCCCCCC(C)=O

["−0.80", "−0.92", "−0.79"]

* * *

Test system: RNAi-treated eri-1 (mg366) nematodes
EXPERIMENTAL DETAILS: RNAi screening of olfactory receptor genes: chemotaxis assay of RNAi-treated nematodes to odorants
Assay type: in vivo, Caenorhabditis elegans
PARTICULARS: srh-69 RNAi-treated nematodes; low concentration of attractant
OBSERVED PROPERTY: chemotaxis index
One number for each entry.

COMPOUND | chemotaxis index
CCC(=O)C(C)=O | 0.13

Batch of 3 compounds: report chemotaxis index for each.
1. Cc1nc(C)c(C)s1
2. c1cnccn1
3. CCC(C)=O

[0.75, 0.35, 0.66]

* * *

System: RNAi-treated eri-1 (mg366) nematodes
EXPERIMENTAL DETAILS: RNAi screening of olfactory receptor genes: chemotaxis assay of RNAi-treated nematodes to odorants
Assay type: in vivo, Caenorhabditis elegans
PARTICULARS: srh-105 RNAi-treated nematodes; repellent or high concentration of attractant
Quick rule: chemotaxis index of at least -0.8 means Y, below that means N.

hey, is chemotaxis index for this one >= -0.8? CC(=O)C(C)=O [High Da] Y

hey, is chemotaxis index for this one >= -0.8? O=Cc1ccccc1 [High Bz] N

hey, is chemotaxis index for this one >= -0.8? CC(C)CCO [High Iaa] Y

hey, is chemotaxis index for this one >= -0.8? CCCCCCCCO [octanol] Y

* * *

Provide the reported chemotaxis index of each item.
Tested on: RNAi-treated eri-1 (mg366) nematodes
EXPERIMENTAL DETAILS: RNAi screening of olfactory receptor genes: chemotaxis assay of RNAi-treated nematodes to odorants
Assay type: in vivo, Caenorhabditis elegans
PARTICULARS: srh-37 RNAi-treated nematodes; repellent or high concentration of attractant
Experimental: The RNAi assay was carried out by performing an RNAi method involving the feeding (feeding RNAi method) of eri-1 (mg366) (19), using an Ahringer library (37). Nine adult eri-1 mutants were placed on an NGM plate containing isopropyl 1-D-1-thiogalactopyranoside (0.19 g/L), ampicillin (60 mg/L), and Escherichia coli (E. coli), and were then cultured for 4 days. […] The z score and a control value in each single test from 2SD were calculated in all days (Table 3) or every day. […]
Numbers only.

Batch of 5 molecules: report chemotaxis index for each.
1. O=Cc1ccccc1
2. CCCCCCCC(C)=O
3. CC(=O)C(C)=O
4. CCCCCCCCO
5. CC(C)CCO

1: −1.00; 2: −0.89; 3: −0.34; 4: −0.88; 5: −0.69
